Target: 3T3 fibroblast bombesin receptors (3T3 GRP receptor) (Mus musculus)
Construct: Membranes from various tissues (rat brain, rat pancreas, rat anterior pituitary, SCLC, 3T3 cells) are prepared by homogenization; endogenous in cells; host or cells: 3T3 fibroblasts (membrane preparation)
Sequence (P21729 whole entry): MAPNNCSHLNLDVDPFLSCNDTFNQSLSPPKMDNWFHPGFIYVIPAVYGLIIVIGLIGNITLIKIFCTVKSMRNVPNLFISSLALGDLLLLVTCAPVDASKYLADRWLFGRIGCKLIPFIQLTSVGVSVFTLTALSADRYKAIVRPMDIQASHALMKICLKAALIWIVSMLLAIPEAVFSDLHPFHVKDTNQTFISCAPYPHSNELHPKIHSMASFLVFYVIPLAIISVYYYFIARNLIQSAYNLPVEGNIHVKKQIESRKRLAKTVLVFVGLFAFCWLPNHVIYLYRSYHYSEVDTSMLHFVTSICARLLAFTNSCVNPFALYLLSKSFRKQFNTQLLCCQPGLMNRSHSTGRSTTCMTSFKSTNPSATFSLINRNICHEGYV
Assay: In vitro inhibition of [125I]GRP binding to 3T3 fibroblast bombesin receptors
Design: species or system murine
Conditions: inhibition of [125I]GRP binding, 3T3 membranes; read-out: 3T3 GRP Receptor IC50
Non-standard residues stand in square brackets, D forms with d. Residues, ends and D or L forms follow the SMILES beside them. *: point of attachment. X2 = CC(C)C[C@@H](CN[C@@H](CC(C)C)C(N)=O)N*; pGlu = O=C1CC[C@@H](C(=O)O)N1
A collection of compounds and their measured IC50

CC(C)C[C@@H](CN[C@@H](CC(C)C)C(N)=O)NC(=O)[C@H](Cc1c[nH]cn1)NC(=O)[C@@H](C)NC(=O)[C@@H](NC(=O)[C@H](C)NC(=O)[C@H](Cc1c[nH]c2ccccc12)NC(=O)[C@H](Cc1c[nH]cn1)NC(=O)[C@@H](C)N)C(C)C [BIM-26106] (H-[dA]HWAV[dA]H-X2; N-terminus assumed) : 0.401 µM
CC(=O)N[C@H](C)C(=O)N[C@@H](Cc1c[nH]cn1)C(=O)N[C@@H](Cc1c[nH]c2ccccc12)C(=O)N[C@@H](C)C(=O)N[C@H](C(=O)NCC(=O)N[C@@H](Cc1c[nH]cn1)C(=O)N[C@H](CN[C@@H](CC(C)C)C(N)=O)CC(C)C)C(C)C [BIM-26108] (Ac-[dA]HWAVGH-X2) : 0.841 µM
CC(C)C[C@@H](CN[C@@H](CC(C)C)C(N)=O)NC(=O)[C@H](Cc1c[nH]cn1)NC(=O)CNC(=O)[C@@H](NC(=O)[C@H](C)NC(=O)[C@H](Cc1c[nH]c2ccccc12)NC(=O)[C@H](Cc1c[nH]cn1)NC(=O)[C@H](N)Cc1ccccc1)C(C)C [BIM-26107] (H-[dF]HWAVGH-X2) : 0.199 µM

# next compound below
Prompt line: Determine reported IC50 for CC(C)C[C@@H](CN[C@@H](CC(C)C)C(N)=O)NC(=O)[C@H](Cc1c[nH]cn1)NC(=O)[C@@H](C)NC(=O)[C@@H](NC(=O)[C@H](C)NC(=O)[C@H](Cc1c[nH]c2ccccc12)NC(=O)[C@H](CCC(N)=O)NC(=O)[C@@H]1CCC(=O)N1)C(C)C [BIM-26095] ([pGlu]QWAV[dA]H-X2) ; test system: 3T3 fibroblast bombesin receptors (3T3 GRP receptor) (Mus musculus).
Response line: 2.62 µM

###

Molecular target: swiss 3T3 cells (Mus musculus, UniProt P21729)
Assay: Bombesin-stimulated [3H]thymidine uptake by cultured 3T3 cells
Type: cell-based, murine
Settings: Table 1
Experimental: Phase 1—3T3 Peptide Stimulated [^3H] Thymidine Uptake Assay Cell Culture. […] Assay of DNA Synthesis. […] The cells are washed twice with ice-cold 0.9% NaCl (1 ml aliquots), and acid soluble radioactivity is removed by a 30 min. […] The solubilized material is transferred to vials containing 10 ml ScintA (Packard), and the radioactivity is determined by liquid scintillation spectrometry. […]
Non-standard residues stand in square brackets, D forms with d. Residues, ends and D or L forms follow the SMILES beside them. *: point of attachment. X2 = CC(C)C[C@@H](CN[C@@H](CC(C)C)C(N)=O)N*
measurement.type: activity in the 3T3 thymidine uptake assay (in words)

CC(C)C[C@@H](CN[C@@H](CC(C)C)C(N)=O)NC(=O)[C@H](Cc1c[nH]cn1)NC(=O)CNC(=O)[C@@H](NC(=O)[C@H](C)NC(=O)[C@H](Cc1c[nH]c2ccccc12)NC(=O)[C@H](Cc1c[nH]cn1)NC(=O)[C@H](CC(N)=O)NC(=O)CN)C(C)C [BIM-26092] (H-GNHWAVGH-X2) : antagonists
CC(C)C[C@@H](CN[C@@H](CC(C)C)C(N)=O)NC(=O)[C@H](Cc1c[nH]cn1)NC(=O)CNC(=O)[C@@H](NC(=O)[C@H](C)NC(=O)[C@H](Cc1c[nH]c2ccccc12)NC(=O)[C@H](Cc1c[nH]cn1)NC(=O)[C@H](N)Cc1ccccc1)C(C)C [BIM-26107] (H-[dF]HWAVGH-X2) : antagonists
